- Tested on: KM12 colon
- ASSAY: NCI-60 one-dose screen, 48 h (100 = growth as untreated, 0 = no growth, -100 = all killed)
- STATED CONDITIONS: 10 µM unless noted
The panel holds about 83,000 compounds, 20% with a hit somewhere; the sample as a whole holds those more often.
Task for the reader: assign each of the following molecules its reported growth.
One number for each entry, in %.

A selection of reference data follows.
>  <MOLECULE>
Fc1ccc(F)c(CNc2nc(SCCN3CCOCC3)nc3c2cnn3CC(Cl)c2ccc(Br)cc2)c1 (centres undefined)

>  <UNIT TEXT>
%

>  <RESULT NUMBER>
4.2

$$$$
>  <MOLECULE>
C=CCSc1nnc(-c2ccc(-c3nc4ccccc4[nH]3)cc2)o1

>  <UNIT TEXT>
%

>  <RESULT NUMBER>
82

$$$$
>  <MOLECULE>
CNc1nc2ccccc2n2c(-c3ccc(O)c(O)c3)cnc12

>  <UNIT TEXT>
%

>  <RESULT NUMBER>
-0.402

$$$$

Report growth for every entry below.
1. COc1ccc(N=Nc2c(N)nn3c(-c4ccc(F)cc4)ccnc23)cc1
2. N#Cc1ccc(C(=O)NNC(=O)CSc2nc3sc4c(c3c(=O)n2-c2ccc(Cl)cc2)CCCC4)cc1
3. Cc1ccc(S(=O)(=O)N(CCn2ccnc2[N+](=O)[O-])CCn2ccnc2[N+](=O)[O-])cc1
4. N/C(=N\c1nc2ccccc2s1)NC(=O)Nc1ccccc1[N+](=O)[O-]
5. C/C(=N\Nc1ccc(C(=O)O)cc1)c1cnn(-c2cc(=O)[nH]c3ccc(C)cc23)c1C
6. Nc1cc(-c2c[nH]c3ccc(Br)cc23)nc2cc(-c3c[nH]c4ccccc34)nn12

[86.2, 91.2, 105, 1.31, 99.9, -65.4]

* * *

Task for the reader: assign each of the following molecules its reported growth.
- System: HCT-15 colon
- ASSAY: NCI-60 one-dose screen, 48 h (100 = growth as untreated, 0 = no growth, -100 = all killed)
- STATED CONDITIONS: 10 µM unless noted
The panel holds about 83,000 compounds, 20% with a hit somewhere; the sample as a whole holds those more often.
Give bare numbers, in %.

A selection of reference data follows.
>  <MOLECULE>
N#Cc1cc(-c2ccnc(Nc3ccc(N4CCN(C5COC5)CC4)cc3)n2)ccc1N1CCCC1

>  <ASSAY METRIC>
growth

>  <UNIT TEXT>
%

>  <RESULT NUMBER>
41.9

$$$$
>  <MOLECULE>
CCC1(OC(=O)c2ccccc2SSCCOC(=O)CCCCC2SCC3NC(=O)NC32)C(=O)OCc2c1cc1n(c2=O)Cc2cc3ccccc3nc2-1 (centres undefined)

>  <ASSAY METRIC>
growth

>  <UNIT TEXT>
%

>  <RESULT NUMBER>
64.7

$$$$
>  <MOLECULE>
O=c1[nH]c2ccccc2cc1COc1ccc(Nc2nccc(-c3ccc(Cl)cc3)n2)cc1

>  <ASSAY METRIC>
growth

>  <UNIT TEXT>
%

>  <RESULT NUMBER>
101

$$$$
>  <MOLECULE>
O=S(=O)(c1nc(-c2ccc(Br)cc2)oc1-c1ccc(Cl)cc1)N1CCCC(O)C1 (centres undefined)

>  <ASSAY METRIC>
growth

>  <UNIT TEXT>
%

>  <RESULT NUMBER>
42.6

$$$$

Report growth for every entry below.
1. CC(Nc1ncnc2ccc(-c3ccc4oc(N)nc4c3)cc12)c1ccccc1 (centres undefined)
2. Clc1ccccc1Nc1nnc(-c2c[nH]c3ccccc23)o1

1. 5.13
2. 26.1

Report growth for every entry below.
1. COc1ccc2c(c1)C(Sc1ccc(Br)cc1)c1c(nc(N)c(C#N)c1N)O2 (centres undefined)
2. COc1ccc(NC(=O)CSc2nnc(-c3ccc(-c4nc5ccc(Cl)cc5[nH]4)cc3)o2)cc1
3. CC(C)CN1C(=O)/C(=C\C(=O)c2cc3ccccc3oc2=O)c2ccccc21
4. COc1ccccc1NC(=O)c1ccc(NC(=O)CCl)s1
5. NS(=O)(=O)c1ccc(N2N=C(c3ccc(NC(=O)Nc4ccccc4)cc3)CC2c2ccc(Br)cc2)cc1 (centres undefined)
6. Clc1ccc(-c2nc3c4c(-c5ccccc5)c(-c5ccccc5)n(Cc5ccccc5)c4ncn3n2)cc1
7. COc1ccc(OC)c(Cn2cc(C#N)c(N)c2C(=O)c2ccc(Br)cc2)c1

76.3
41.9
45.3
-50.8
-89.1
13.6
26.2
